assay: Pharmacokinetics of decitabine in IVAP rabbit model; assay type: in vivo, rabbits; settings: IV 0.75 mg/kg, 30 min
quantity-name: concentration SYS, Mean (ng/mL)
Answer in ng/mL, number only, no unit symbol.

Fill in the blank: the reported concentration SYS, Mean of Nc1ncn([C@H]2C[C@H](O)[C@@H](CO)O2)c(=O)n1 is ____.
177

---

assay: Pharmacokinetics of decitabine in IVAP rabbit model; format: in vivo, rabbits; details: IV 1.5 mg/kg, 60 min
quantity-name: concentration PV, Mean (ng/mL)
Express it in ng/mL; write the number only.

What does the record list as concentration PV, Mean for Nc1ncn([C@H]2C[C@H](O)[C@@H](CO)O2)c(=O)n1 ?
128

---

Assay: Pharmacokinetics of decitabine in IVAP rabbit model
Type: in vivo, rabbits
Conditions: rabbit, plasma, 2.5 mg/kg, 2.5 mg/kg LSI
Experimental: Decitabine was administered intravenously to IVAP rabbits (n=3) at three doses: 0.75, 1.5 and 2.5 mg/kg. It was also administered at 2.5mg/kg orally and through previously implanted intestinal and vascular access ports in the portal vein (PV), upper small intestine (USI), lower small intestine (LSI) and colon (IC). […] Pharmacokinetic parameters were calculated using non-compartmental models with the Winnonlin v3.1 program.
quantity-name: half-life (min)
Write the answer as a number in min, unit excluded.

What does the data say about its half-life? Entry: Nc1ncn([C@H]2C[C@H](O)[C@@H](CO)O2)c(=O)n1
44.4

---

assay: in vivo; conditions: male, beagle, dog, po, 0.2 mg/kg, systemic bioavailability (F), mean
quantity-name: bioavailability (%)
Give a bare numeral; the unit % is implied.

Name the reported bioavailability value associated with the compound OC[C@H]1O[C@@H](n2cnc3c2NC=NC[C@H]3O)C[C@@H]1O
28

---

assay: Pharmacokinetics of decitabine in IVAP rabbit model; format: in vivo, rabbits; details: rabbit, plasma, 2.5 mg/kg, LSI 2.5 mg/kg; read-out: Mean Cmax
quantity-name: CMAX (ng/mL)
Give a bare numeral; the unit ng/mL is implied.

Requested field: CMAX. Item: Nc1ncn([C@H]2C[C@H](O)[C@@H](CO)O2)c(=O)n1 [decitabine, 5-aza-2′-deoxycytidine]
736

---

Assay: Pharmacokinetics of decitabine in IVAP rabbit model
Format: in vivo, rabbits
Settings: rabbit, plasma (systemic, median auricular artery), 2.5 mg/kg, USI 2.5 mg/kg; read-out: Mean AUC0-inf in Systemic Samples
Protocol: Decitabine was administered intravenously to IVAP rabbits (n=3) at three doses: 0.75, 1.5 and 2.5 mg/kg. It was also administered at 2.5mg/kg orally and through previously implanted intestinal and vascular access ports in the portal vein (PV), upper small intestine (USI), lower small intestine (LSI) and colon (IC). […] Pharmacokinetic parameters were calculated using non-compartmental models with the Winnonlin v3.1 program.
quantity-name: AUC(0-inf) (ng·h/mL)
State just the number; it will be interpreted in ng·h/mL.

Reported AUC(0-inf), compound Nc1ncn([C@H]2C[C@H](O)[C@@H](CO)O2)c(=O)n1 : ____
837

---

test: Pharmacokinetics of decitabine in IVAP rabbit model; assay type: in vivo, rabbits; details: rabbit, plasma, iv, 0.75 mg/kg, 0.75 mg/kg IV; read-out: Mean Residence Time
quantity-name: MRT (min)
Give your result in min as a bare value.

For the compound shown here, Nc1ncn([C@H]2C[C@H](O)[C@@H](CO)O2)c(=O)n1 , give the reported MRT.
50.4

---

assay: Pharmacokinetics of decitabine in IVAP rabbit model; type: in vivo, rabbits; conditions: IV 0.75 mg/kg, 2 min
quantity-name: concentration PV, Mean (ng/mL)
Respond with the bare value in ng/mL.

Item under review: Nc1ncn([C@H]2C[C@H](O)[C@@H](CO)O2)c(=O)n1 [decitabine, 5-aza-2′-deoxycytidine] . Reported concentration PV, Mean?
624

---

experiment: Pharmacokinetics of decitabine in IVAP rabbit model; format: in vivo, rabbits; details: rabbit, plasma, iv, 1.5 mg/kg, 1.5 mg/kg IV
quantity-name: half-life (min)
Record the value in min, omitting the unit from your answer.

Given the compound Nc1ncn([C@H]2C[C@H](O)[C@@H](CO)O2)c(=O)n1 [decitabine, 5-aza-2′-deoxycytidine] , what is its reported half-life?
45

---

assay: Pharmacokinetics of decitabine in IVAP rabbit model; type: in vivo, rabbits; settings: IV 0.75 mg/kg, 60 min
quantity-name: concentration SYS, Mean (µg/mL)
Report only the number, with the unit µg/mL understood.

// query concentration SYS, Mean value for entry Nc1ncn([C@H]2C[C@H](O)[C@@H](CO)O2)c(=O)n1
0.098

---

assay: Pharmacokinetics of decitabine in IVAP rabbit model; type: in vivo, rabbits; settings: IV 0.75 mg/kg, 60 min
quantity-name: concentration PV, Mean (ng/mL)
Output spec: scalar in ng/mL, unitless text.

Name the reported concentration PV, Mean value associated with the compound Nc1ncn([C@H]2C[C@H](O)[C@@H](CO)O2)c(=O)n1 [decitabine, 5-aza-2′-deoxycytidine]
83

---

assay: Pharmacokinetics of decitabine in IVAP rabbit model; type: in vivo, rabbits; conditions: rabbit, plasma, 2.5 mg/kg, USI; read-out: Clearance (converted)
quantity-name: clearance
Quick note: number first, unit second.

Would you mind telling me what clearance value was observed for Nc1ncn([C@H]2C[C@H](O)[C@@H](CO)O2)c(=O)n1 ?
37.2 mL/min/kg

---

test: Pharmacokinetics of decitabine in IVAP rabbit model; assay type: in vivo, rabbits; settings: IV 0.75 mg/kg, 240 min
quantity-name: concentration PV, Mean
Kindly report the value followed by its unit.

What value of concentration PV, Mean has been reported for the following molecule? Nc1ncn([C@H]2C[C@H](O)[C@@H](CO)O2)c(=O)n1 [decitabine, 5-aza-2′-deoxycytidine]
5 ng/mL

---

test: Pharmacokinetics of decitabine in IVAP rabbit model; type: in vivo, rabbits; conditions: rabbit, plasma, Overall mean of all doses and routes; read-out: Mean Residence Time
quantity-name: MRT (min)
API: value field is a number in min; no unit string.

Fill in: MRT of Nc1ncn([C@H]2C[C@H](O)[C@@H](CO)O2)c(=O)n1 is ___
55.8

---

assay: Pharmacokinetics of decitabine in IVAP rabbit model; format: in vivo, rabbits; conditions: IV 0.75 mg/kg, 15 min
quantity-name: concentration SYS, Mean (ng/mL)
Give the value in ng/mL but do not write ng/mL after it.

Would you kindly share the measured concentration SYS, Mean for Nc1ncn([C@H]2C[C@H](O)[C@@H](CO)O2)c(=O)n1 ?
247

---

experiment: Pharmacokinetics of decitabine in IVAP rabbit model; format: in vivo, rabbits; conditions: rabbit, plasma (systemic), 2.5 mg/kg, LSI 2.5 mg/kg; read-out: Individual systemic Bioavailability
quantity-name: bioavailability (%)
Unit % implied. Number only.

For the molecule shown here, Nc1ncn([C@H]2C[C@H](O)[C@@H](CO)O2)c(=O)n1 , give the reported bioavailability.
55

---

assay: Pharmacokinetics of decitabine in IVAP rabbit model; type: in vivo, rabbits; conditions: rabbit, plasma, 2.5 mg/kg, LSI; read-out: Clearance (converted)
quantity-name: clearance (mL/min/kg)
Enter your answer as a number in mL/min/kg; do not include the unit.

Reported clearance for Nc1ncn([C@H]2C[C@H](O)[C@@H](CO)O2)c(=O)n1 [decitabine, 5-aza-2′-deoxycytidine] : what is it?
37.2

---

assay: Pharmacokinetics of decitabine in IVAP rabbit model; format: in vivo, rabbits; conditions: IV 1.5 mg/kg, 15 min
quantity-name: concentration SYS, Mean (ng/mL)
Give your result in ng/mL as a bare value.

Quick check: concentration SYS, Mean of Nc1ncn([C@H]2C[C@H](O)[C@@H](CO)O2)c(=O)n1 [decitabine, 5-aza-2′-deoxycytidine] ?
433

---

assay: Pharmacokinetics of decitabine in IVAP rabbit model; type: in vivo, rabbits; conditions: rabbit, plasma, 2.5 mg/kg, 2.5 mg/kg IC
quantity-name: half-life (min)
Express the result in min but write the number alone.

# query: half-life of entry Nc1ncn([C@H]2C[C@H](O)[C@@H](CO)O2)c(=O)n1
40.8

---

experiment: in vivo; conditions: male, beagle, dog, po, 0.2 mg/kg, pH 7, systemic bioavailability (F), mean
quantity-name: bioavailability
Remember to quote the unit after the number.

Give the measured bioavailability of OC[C@H]1O[C@@H](n2cnc3c2NC=NC[C@H]3O)C[C@@H]1O .
14.3%

---

Assay: Pharmacokinetics of decitabine in IVAP rabbit model
Assay type: in vivo, rabbits
Details: IV 0.75 mg/kg, 2 min
Method: Decitabine was administered intravenously to IVAP rabbits (n=3) at three doses: 0.75, 1.5 and 2.5 mg/kg. It was also administered at 2.5mg/kg orally and through previously implanted intestinal and vascular access ports in the portal vein (PV), upper small intestine (USI), lower small intestine (LSI) and colon (IC). […] Pharmacokinetic parameters were calculated using non-compartmental models with the Winnonlin v3.1 program.
quantity-name: concentration SYS, Mean (ng/mL)
All answers are understood in ng/mL, so give the number only.

So what's the measured concentration SYS, Mean for this one? Nc1ncn([C@H]2C[C@H](O)[C@@H](CO)O2)c(=O)n1
628
